biological target: DGKζ (Homo sapiens, UniProt Q13574); construct: His (N); TEV cleavage site (N); experiment: Biochemical DGK IC50 assay, DGKζ ADP-Glo assay; details: full length DGKζ 0.5 nM, ATP 140 μM, DAG 80 μM
Sequence (Q13574 1-929 isoform Q13574-4): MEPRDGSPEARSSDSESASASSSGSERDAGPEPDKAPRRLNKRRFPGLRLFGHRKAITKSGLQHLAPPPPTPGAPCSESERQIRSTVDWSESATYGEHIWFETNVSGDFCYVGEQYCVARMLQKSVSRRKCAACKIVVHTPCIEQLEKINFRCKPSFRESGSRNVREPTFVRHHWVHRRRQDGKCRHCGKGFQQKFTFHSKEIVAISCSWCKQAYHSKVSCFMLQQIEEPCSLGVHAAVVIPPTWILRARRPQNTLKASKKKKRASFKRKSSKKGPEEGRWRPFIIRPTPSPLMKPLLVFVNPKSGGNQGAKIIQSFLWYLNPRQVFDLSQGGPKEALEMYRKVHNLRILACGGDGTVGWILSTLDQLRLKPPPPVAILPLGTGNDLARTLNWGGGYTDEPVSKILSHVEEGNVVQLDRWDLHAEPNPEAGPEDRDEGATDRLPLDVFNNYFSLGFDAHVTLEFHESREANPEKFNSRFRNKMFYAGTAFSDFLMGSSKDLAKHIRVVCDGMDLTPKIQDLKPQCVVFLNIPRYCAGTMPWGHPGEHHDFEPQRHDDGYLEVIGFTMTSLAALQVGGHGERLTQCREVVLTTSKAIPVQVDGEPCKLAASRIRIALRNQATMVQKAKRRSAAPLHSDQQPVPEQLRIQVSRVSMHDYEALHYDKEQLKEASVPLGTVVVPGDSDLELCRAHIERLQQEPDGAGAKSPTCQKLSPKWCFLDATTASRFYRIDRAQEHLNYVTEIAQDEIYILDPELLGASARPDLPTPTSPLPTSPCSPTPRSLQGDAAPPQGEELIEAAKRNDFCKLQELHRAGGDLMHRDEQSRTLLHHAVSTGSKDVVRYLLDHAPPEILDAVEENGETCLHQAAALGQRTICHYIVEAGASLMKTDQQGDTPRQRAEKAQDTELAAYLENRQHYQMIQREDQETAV
This listing pairs compounds with measured pIC50.
# pIC50 = -log10(concentration in molar units)

Example compounds with recorded pIC50:
- compound: "COCc1cc(F)ccc1C(C)N1C[C@H](C)N(c2cc(=O)n(C)c3cn(CC#N)nc23)C[C@H]1C (single isomer, unassigned) [Compound A29a]"
  targetUnderTest: "DGKζ (Homo sapiens, UniProt Q13574)"
  pIC50: 5.65
- compound: "CC[C@H]1CN(C(C)c2ccc(C3CC3)cc2F)[C@H](CC)CN1c1cc(=O)n(C)c2cn(CC#N)nc12 (single isomer, unassigned) [Compound A72b]"
  targetUnderTest: "DGKζ (Homo sapiens, UniProt Q13574)"
  pIC50: 7.82
- compound: "CC[C@H]1CN(C2CCOc3ccccc32)[C@H](CC)CN1c1cc(=O)n(C)c2cn(CC#N)nc12 (single isomer, unassigned) [Compound A150a]"
  targetUnderTest: "DGKζ (Homo sapiens, UniProt Q13574)"
  pIC50: 5.56
- compound: "CC[C@H]1CN(C2CCCc3ccccc32)[C@H](CC)CN1c1cc(=O)n(C)c2cn(CC#N)nc12 (single isomer, unassigned) [Compound A146a]"
  targetUnderTest: "DGKζ (Homo sapiens, UniProt Q13574)"
  pIC50: 6.55

pIC50 for CCC1CN(c2c(C#N)c(=O)n(C)c3cn(CC#N)nc23)CCN1C(C)c1ccc2nccnc2c1 (centres unmarked) is 6.15

pIC50 for CC[C@H]1CN(C(C)c2nc(Cl)cn2CC)[C@H](CC)CN1c1cc(=O)n(C)c2cn(CC#N)nc12 (single isomer, unassigned) [Compound A191a] is 5.17

pIC50 for COc1cc(F)ccc1C(C)N1C[C@H](C)N(c2cc(=O)n(C)c3cn(CC#N)nc23)C[C@H]1C (some centres unmarked) is 6.24

pIC50 for CC[C@H]1CN(C(C)c2ccc(C(F)F)nc2)[C@H](CC)CN1c1cc(=O)n(C)c2cn(CC#N)nc12 (single isomer, unassigned) [Compound A351b] is 5.49

pIC50 for CC[C@H]1CN(C(C)c2ccc(F)cc2C(F)F)[C@H](CC)CN1c1cc(=O)n(C)c2cn(CC#N)nc12 (single isomer, unassigned) [Compound A172a] is 5.36

pIC50 for CC[C@H]1CN(C(C)c2ccc(CN3CCOCC3)cc2)[C@H](CC)CN1c1cc(=O)n(C)c2cn(CC#N)nc12 (single isomer, unassigned) [Compound A383b] is 5.34

----------
biological target: DGKζ (Homo sapiens, UniProt Q13574); construct: His (N); TEV cleavage site (N); test: Biochemical DGK IC50 assay, DGKζ ADP-Glo assay; details: full length DGKζ 0.5 nM, ATP 140 μM, DAG 80 μM
Records here are stratified by IC50; strata: bin A: < 100 nM; bin B: ≥ 100 nM and < 4000 nM; bin C: ≥ 4000 nM

Answered cases to consult:
- compound: "CC[C@H]1CN(C(C)c2ncccc2OC)[C@H](CC)CN1c1cc(=O)n(C)c2cn(CC#N)nc12 (single isomer, unassigned) [Compound A92a]"
  assignedClass: "bin C"
- compound: "CC[C@H]1CN(C(C)c2ncccc2OC)[C@H](CC)CN1c1cc(=O)n(C)c2cn(CC#N)nc12 (single isomer, unassigned) [Compound A92b]"
  assignedClass: "bin B"
- compound: "Cc1cnc2ccc([C@H](C)N3C[C@H](C)N(c4cc(=O)n(C)c5cn(CC#N)nc45)C[C@H]3C)cc2n1 (single isomer, unassigned) [Compound A269d]"
  assignedClass: "bin A"

[in] Which class is correct for the following compound? Cc1c2c(nn1CC#N)c(N1C[C@@H](C)N(C(C)c3ccc(F)cc3C(F)(F)F)C[C@@H]1C)nc(=O)n2C (single isomer, unassigned) [Compound A267b]
[out] bin A

[in] Which class is correct for the following compound? CC[C@H]1CN(C2CCCc3ccccc32)[C@H](CC)CN1c1cc(=O)n(C)c2cn(CC#N)nc12 (single isomer, unassigned) [Compound A146b]
[out] bin C

[in] Which class is correct for the following compound? CC(c1ccc2c(c1)OCC(C)(C)O2)N1C[C@H](C)N(c2cc(=O)n(C)c3cn(CC#N)nc23)C[C@H]1C (single isomer, unassigned) [Compound A46c]
[out] bin B

[in] Which class is correct for the following compound? CC[C@@H]1CN(c2c(Cl)c(=O)n(C)c3cn(CC#N)nc23)CCN1C(C)c1ccc2nccnc2c1 (single isomer, unassigned) [Compound A162a]
[out] bin C

[in] Which class is correct for the following compound? CC[C@@H]1CN(c2c(F)c(=O)[nH]c3cn(CC#N)nc23)[C@@H](C)CN1C(C)c1ccc2nccnc2c1 (single isomer, unassigned) [Compound A194b]
[out] bin B

[in] Which class is correct for the following compound? CC(c1ccc2c(c1)OC(C)(C)CO2)N1C[C@H](C)N(c2cc(=O)n(C)c3cn(CC#N)nc23)C[C@H]1C (single isomer, unassigned) [Compound A46d]
[out] bin A

[in] Which class is correct for the following compound? CC(c1ccc2c(c1)OCC(C)(C)O2)N1C[C@H](C)N(c2cc(=O)n(C)c3cn(CC#N)nc23)C[C@H]1C (single isomer, unassigned) [Compound A46e]
[out] bin C

Where do these numbers come from? They come from patent US20240300951A1.
